Listing of recorded inhibition by entry.
Biological target: Glutathione S-transferase omega-1 (Homo sapiens) (UniProt P78417)
Sequence (P78417 whole entry, looked up): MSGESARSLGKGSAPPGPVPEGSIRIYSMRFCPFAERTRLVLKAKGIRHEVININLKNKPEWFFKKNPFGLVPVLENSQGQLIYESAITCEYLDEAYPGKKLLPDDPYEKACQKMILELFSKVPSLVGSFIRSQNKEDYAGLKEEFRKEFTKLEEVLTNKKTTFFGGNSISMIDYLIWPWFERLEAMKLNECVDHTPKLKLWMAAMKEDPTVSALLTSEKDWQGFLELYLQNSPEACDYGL
Test: inhibitors of recombinant GSTO1, primary screen, counter-screen for RBBP9 inhibitor project, biochemical, fluorescence polarization (AID 1974);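 further: 0% = GSTO1-1 with DMSO and 100% = wells lacking GSTO1-1 enzyme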
Conditions: recombinant GSTO1, activity-based probe fluorescence polarization; at 5.96 µM; stronger effect = higher value
Among all 300,000 compounds or so, about 3,200 (1.1%) were called active. The entries come from a sample that favours actives as a whole.
Quick reminder: number only, in %, skip the unit.

Here is how some compounds turned out for inhibition.
>>> df
                                   compound  measuredendpoint  unitofmeasurement  measuredresult
0  C/C(=N/Nc1ccc(Cl)cc1)c1cnnc(-c2ccccc2)n1        inhibition                  %           -2.69
1  C/C(=N\NC(=O)CC(C)C)c1c(C(F)(F)F)[nH]n(-c2nc3ccccc3s2)c1=O        inhibition                  %           -27.6
2  COC(=O)CCCC1=CC2=C(c3ccccc3)C(=O)C(C)(OC(=O)C3CCCC3)C(=O)C2=CN1c1ccc(OC)cc1 (stereo not given)        inhibition                  %              40
3  CC(OC(=O)CNC(=O)c1cccc(F)c1)C(=O)NC1CCCCC1C (stereo not given)        inhibition                  %            3.44
4  Cc1nc2nc(C)c(CCC(=O)N3CCN(c4ccccc4)CC3)c(C)n2n1        inhibition                  %            8.27

Returns the measured inhibition for the input compound. Input: CCOc1ccc(N2CC(C(=O)N/N=C/c3sccc3C)CC2=O)cc1 (stereo not given)
8.53

Can you share its inhibition? I mean this compound: `O=C(NCc1ccccn1)Nc1ccc(Cl)cc1`
-3.8

Sample `NC(=O)C1CCN(C(=O)c2cn(-c3ccccc3)nc2-c2cccnc2)CC1` — what was its inhibition?
4.31

Sample `[O-][n+]1ccc(OCc2ccccc2)cc1` — what was its inhibition?
10.9

Can you look up the measured inhibition of `Cc1nc2c(c(C)nn2-c2ccccc2)c(C)c1C` for me?
15.1
